# System: M. tuberculosis H37Rv growth inhibition with meropenem
# measurement description: dose response, H37Rv, with and without meropenem (AID 434987);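 further: growth over 7 days at 37 °C before Alamar Blue read on day 9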
# run parameters: M. tuberculosis H37Rv growth inhibition; measured here: IC50 without meropenem
property measured: IC50

Some solved cases for reference:
compound | target system | IC50
O=C(CCN1C(=O)c2ccccc2S1(=O)=O)Nc1ccc(Cl)cc1 | M. tuberculosis H37Rv growth inhibition with meropenem | > 100 µM
CCOC(=O)N1CCN(C(=O)CSc2nnc(COc3ccccc3)o2)CC1 | M. tuberculosis H37Rv growth inhibition with meropenem | 21.5 µM
CCC(=O)NC(=S)Nc1ccc(NC(=O)c2cccc([N+](=O)[O-])c2C)cc1 | M. tuberculosis H37Rv growth inhibition with meropenem | > 100 µM
CO/N=C(\C(=O)N[C@@H]1C(=O)N2C(C(=O)O)=C(COC(C)=O)CS[C@H]12)c1csc(N)n1 (stereo in doubt) | M. tuberculosis H37Rv growth inhibition with meropenem | > 100 µM
O=C(Nc1ccc(S(=O)(=O)N2CCCCC2)cc1)C1CCCN(C(=O)c2ccc(Cl)cc2)C1 (stereo not given) | M. tuberculosis H37Rv growth inhibition with meropenem | > 100 µM
O=S1(=O)CCO[C@H]2Cc3ccccc3[C@H]2N1Cc1ccc(Cl)cc1 | M. tuberculosis H37Rv growth inhibition with meropenem | > 100 µM
CC(C)C1CC(CCNCc2ccc(N(C)C)cc2)(c2ccccc2)CCO1 (stereo not given) | M. tuberculosis H37Rv growth inhibition with meropenem | 29 µM
S=C(Nc1ccccc1Cl)N1CCCC(c2ccccc2)=N1 | M. tuberculosis H37Rv growth inhibition with meropenem | 68.9 µM
CCOC(=O)c1c(NC(=O)C(=O)N/N=C/c2ccccc2OC)sc2c1CCCCC2 | M. tuberculosis H37Rv growth inhibition with meropenem | > 100 µM

Prompt: Value wanted: IC50 (M. tuberculosis H37Rv growth inhibition with meropenem) of entry `CCOc1cccc(=O)c2c(C)n(Cc3ccccc3)c(C)c12`
Completion: > 100 µM

----------
# System: M. tuberculosis H37Rv growth inhibition with meropenem
# measurement description: dose response, H37Rv, with and without meropenem (AID 434987);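 further: growth over 7 days at 37 °C before Alamar Blue read on day 9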
# run parameters: measured here: IC90 with meropenem
Listing of recorded IC90 by entry.

molecule | target system | property measured | result value
Cc1nc2ccccc2c(=O)n1/N=C/c1c(O)ccc2oc3c(c12)CCCC3 | M. tuberculosis H37Rv growth inhibition with meropenem | IC90 | > 100 µM
CC(=O)Nc1cccc(/C(C)=N/NC(N)=S)c1 | M. tuberculosis H37Rv growth inhibition with meropenem | IC90 | 28.6 µM
C/C(=N\NC(=O)c1csc2ccccc12)c1ccc(O)cc1 | M. tuberculosis H37Rv growth inhibition with meropenem | IC90 | > 100 µM
COc1cccc(/C=C/c2[nH]c(=O)[nH]c(=O)c2[N+](=O)[O-])c1O | M. tuberculosis H37Rv growth inhibition with meropenem | IC90 | 15.9 µM
Cc1ccc(-c2cc(C(=O)N/N=C/C=C/c3ccccc3)n[nH]2)o1 | M. tuberculosis H37Rv growth inhibition with meropenem | IC90 | > 100 µM
O=C(CSCC(=O)Nc1ccccc1)N/N=C/c1c(O)ccc2ccccc12 | M. tuberculosis H37Rv growth inhibition with meropenem | IC90 | > 100 µM

Prompt: Please look up its IC90: `Cc1ccccc1OCC(=O)N/N=C/c1cccc(Oc2ccc([N+](=O)[O-])cc2[N+](=O)[O-])c1`
Completion: 5.4 µM

Prompt: I have this molecule here, `CCOC(=O)c1c(C)[nH]c(C(=O)COC(=O)CCC2CCCC2)c1C` , and I need its recorded IC90.
Completion: > 100 µM

Prompt: So what's the measured IC90 for this one? O=C1CC(Nc2ccc(N3CCOCC3)cc2)C(=O)N1C1CCCCC1 (centres undefined)
Completion: > 100 µM

Prompt: What does the data say about its IC90? Entry: `Cc1ccnn1CC(=O)N/N=C/c1ccc([N+](=O)[O-])s1`
Completion: > 100 µM

Prompt: # query: IC90 of entry `CCN(CC)c1ccc(N=Cc2c(O)n(-c3ccc(Cl)cc3)c(=O)[nH]c2=O)cc1`
Completion: > 100 µM

Prompt: // lookup IC90 for `O=C(CN1CCN(c2ccccn2)CC1)Nc1ccc(Cl)c(C(F)(F)F)c1`
Completion: > 100 µM

Prompt: Consider the molecule `Cc1ccc(S(=O)(=O)N[C@H](C(=O)OCn2nnc3ccccc3c2=O)C(C)C)cc1` and give its measured IC90.
Completion: > 100 µM

Prompt: Look up IC90: `O=C(Cn1c(=O)n(CCCC(=O)NC2CCCC2)c(=O)c2ccccc21)NCCC1=CCCCC1`
Completion: > 100 µM

Prompt: Requested read-out: IC90. Entry: C/C(=N\NC(=O)c1cc2c(s1)CCC(C)C2)c1cccnc1 (centres undefined)
Completion: > 100 µM

Prompt: For `Cn1c(/C=C/c2ccc(Cl)cc2)c([N+](=O)[O-])c(=O)n(C)c1=O` , what is its reported IC90?
Completion: > 100 µM

Prompt: Query: IC90; subject: `COc1cccc(-c2ccc(-c3noc(-c4ccccc4F)n3)c(OC)n2)c1`
Completion: > 12.5 µM

Prompt: # get_value(readout='IC90', item= CCNCC(O)c1cccc(O)c1 (centres undefined) )
Completion: > 100 µM

Prompt: # get_value(readout='IC90', item= `C/C(=N/NC(=O)c1ccccn1)c1ccncc1` )
Completion: 23.1 µM

Prompt: State the recorded IC90 for this entry: `COCCNC(=O)COc1ccc(Oc2ccccc2)cc1`
Completion: > 100 µM

Prompt: Consider the molecule shown here: `CSc1ccccc1C(=O)Nc1cccc([N+](=O)[O-])c1C` What is its recorded IC90?
Completion: > 100 µM

Prompt: // IC90 lookup, key: `COc1ccc([N+](=O)[O-])cc1NS(=O)(=O)c1ccc(Cl)c(C(=O)Nc2sc3c(c2C#N)CCCCC3)c1`
Completion: > 100 µM

Prompt: Report IC90 for `C=CCn1cc(C(=O)NCCCOC)c(=O)c2cc(S(=O)(=O)N(CC)CC)ccc21` please.
Completion: > 100 µM

Prompt: Endpoint output: IC90 of `CCN(CC(=O)Nc1ccccc1OC)C(=O)c1cc(S(=O)(=O)N2CCCCCC2)ccc1OC` . Value?
Completion: > 100 µM

Prompt: What value of IC90 has been reported for the following molecule? `CC(C)(C)c1nn(-c2ccccc2)c2[nH]c(=O)c(CNc3ccc4c(c3)OCCO4)cc12`
Completion: 99.7 µM

Prompt: Query: IC90; subject: Cc1ccc(C(=O)N2CCC3(CC2)Oc2ccc(F)cc2C(=O)C32CC(c3cccnc3)=NO2)s1 (centres undefined)
Completion: > 100 µM

Prompt: Which value of IC90 has been reported for `Cc1cccc(C)c1OCC(=O)NNC(=O)CNC(=O)c1ccc(OC(F)F)cc1` in the records?
Completion: 98.1 µM

----------
Reported IC90 values follow for various molecules
# Tested on: M. tuberculosis H37Rv growth inhibition with meropenem
# measurement description: dose response, H37Rv, with and without meropenem (AID 434987);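 further: growth over 7 days at 37 °C before Alamar Blue read on day 9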
# run parameters: measured here: IC90 with meropenem

molecule | property measured | result value
O=C(OC(C(=O)Nc1ccc(Cl)cc1C(F)(F)F)c1ccccc1)C1=COCCO1 (configuration not stated) | IC90 | > 100 µM
Cc1cc(C)c(OCC(=O)Nc2nc3ccccc3[nH]2)c(C)c1 | IC90 | 65.2 µM
O=S(=O)(Nc1cccc(-c2ccc(N3CCCCCC3)nn2)c1)c1ccccc1Cl | IC90 | > 25 µM
O=C(Nc1nnc(-c2ccc3c(c2)OCCO3)o1)C1CCCCC1 | IC90 | > 100 µM
O=C(N/N=C/c1ccc(OC(=O)c2ccc3c(c2)OCO3)cc1)c1cncc(Br)c1 | IC90 | 48.3 µM

Prompt: State its IC90 on M. tuberculosis H37Rv growth inhibition with meropenem: `CCc1ccc(NC(=S)Nc2ccc3cn[nH]c3c2)cc1`
Completion: > 100 µM

Prompt: Observed IC90 on M. tuberculosis H37Rv growth inhibition with meropenem for `CC(C)NC(=O)C(=O)NNC(=O)C12CC3CC(CC(C3)C1)C2` , please.
Completion: > 100 µM

Prompt: Lab request: please report IC90 under test system M. tuberculosis H37Rv growth inhibition with meropenem for CC1CCCN(S(=O)(=O)c2ccc(C(=O)Nc3nnc(-c4ccncc4)o3)cc2)C1 (configuration not stated)
Completion: 64.8 µM

Prompt: What reported IC90 corresponds to `Cc1[nH]n(-c2ccccc2)c(=O)c1/C=N/NC(=O)c1cccc([N+](=O)[O-])c1` on M. tuberculosis H37Rv growth inhibition with meropenem?
Completion: 70.7 µM

Prompt: Observed IC90 on M. tuberculosis H37Rv growth inhibition with meropenem for `CCO[C@H]1OC(C(=O)NCc2nc3ccccc3[nH]2)=C[C@@H](c2ccc(C(F)(F)F)cc2)[C@@H]1CCCO` , please.
Completion: > 100 µM

----------
# System: M. tuberculosis H37Rv growth inhibition with meropenem
# measurement description: dose response, H37Rv, with and without meropenem (AID 434987);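 further: growth over 7 days at 37 °C before Alamar Blue read on day 9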
# run parameters: measured here: IC90 with meropenem
property measured: IC90

record smiles | property measured | result value
CCCn1nc(NC(=O)c2ccco2)c2cc3cc(C)ccc3nc21 | IC90 | > 100 µM
CC(=O)OCC(=O)Nc1ccc(C(C)=O)cc1 | IC90 | > 100 µM
O=C(CN1CCN(S(=O)(=O)c2ccc(F)cc2)CC1)Nc1ccc2c(c1)OCCO2 | IC90 | > 100 µM
COc1ccc(C(=O)Nc2cccc3c2CCCC3)c(OC)c1 | IC90 | > 100 µM
CC/C(=N\NC(=S)NC(C)C)c1ccc(OC)c(OC)c1 | IC90 | 15.5 µM

Consider now this further compound.
Prompt: Could you share which IC90 value was measured for `CC1=Nc2ccccc2/C1=C\c1nc(-c2ccc(F)cc2)oc1O` ?
Completion: > 100 µM
